Target Under Test: α-Glucosidase (EC.3.2.1.20) from Saccharomyces sp.
Assay Explanation: α-Glucosidase inhibition assay
Format: biochemical
Conditions: in vitro α-glucosidase inhibitory assay; substrate p-nitrophenyl-α-D-glucopyranoside, pH 6.8, 37 °C; value ± SEM; read-out: IC50 (μM ± SEM)
# reported IC50; entries follow

For orientation, consider the following solved cases.
Molecule	IC50
COC(=O)[C@H]1O[C@@H](O[C@H]2CC[C@@]3(C)C(CC[C@]4(C)C3CC=C3C5CC(C)(C)CC[C@]5(C(=O)O)CC[C@]34C)C2(C)C)[C@H](O[C@@H]2O[C@@H](C)[C@H](O)[C@@H](O)[C@H]2O)[C@@H](O)[C@@H]1O (some centres unmarked) [Compound 1]	908 µM
COC(=O)[C@H]1O[C@@H](O[C@H]2CC[C@@]3(C)C(CC[C@]4(C)C3CC=C3C5CC(C)(C)CC[C@]5(C(=O)O)CC[C@]34C)C2(C)C)[C@H](O)[C@@H](O)[C@@H]1O (some centres unmarked) [Compound 2]	> 1000 µM
OCc1ccc(-c2nccc3c2[nH]c2ccccc23)o1 [Compound 7, perlolyrine]	> 1000 µM
C=C(C)[C@@H]1CC[C@]2(C(=O)O[C@@H]3O[C@H](CO[C@@H]4O[C@H](CO)[C@@H](O[C@@H]5O[C@@H](C)[C@H](O)[C@@H](O)[C@H]5O)[C@H](O)[C@H]4O)[C@@H](O)[C@H](O)[C@H]3O)CC[C@]3(C)[C@H](C[C@H]4OC(=O)C[C@@H](O)[C@]5(C)[C@@H]4[C@@]3(C)CC[C@H]5C(=C)C)[C@@H]12 [Compound 3, chiisanoside]	> 1000 µM
C=C(C)[C@@H]1C[C@H](O)[C@]2(C(=O)O[C@@H]3O[C@H](CO[C@@H]4O[C@H](CO)[C@@H](O[C@@H]5O[C@@H](C)[C@H](O)[C@@H](O)[C@H]5O)[C@H](O)[C@H]4O)[C@@H](O)[C@H](O)[C@H]3O)CC[C@]3(C)[C@H](C[C@H]4OC(=O)C[C@@H](O)[C@]5(C)[C@@H]4[C@@]3(C)CC[C@H]5C(=C)C)[C@@H]12 [Compound 4, 22α-hydroxychiisanoside]	820 µM

// IC50 lookup, key: Oc1ccc([C@H]2Oc3cc(O)cc(O)c3C[C@@H]2O)cc1 [Compound 6, (+)-afzelechin]
186 µM

Given the entry COC(=O)CC1C(=O)Nc2ccc(OC)cc21 (centres unmarked) [Compound 5] , report its measured IC50.
> 1000 µM

Need IC50, item O=C(O)c1cc2c([nH]c3ccccc32)c(-c2ccc(CO)o2)n1 [Compound 8, 3-carboxylperlolyrine]
> 1000 µM

Sourced from paper PMC6268071
